Source: PubChem BioAssay AID1159580

- assay_method_text: chemical genetic growth profiling, strain panel (AID 1159580);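 note: tested at 20 µM; growth read once vehicle control cultures reached saturation at 30 °C; 1 = growth at the plate median or of vehicle wells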
- protocol_conditions: S. cerevisiae deletion strains, growth OD, locus YHR094C, strain hxt1, hits give low values
Out of some 5,500 compounds screened, about 2,000 (36%) were called active. About 18% were inconclusive and are not listed. The list shows a part of the results.
Exercise: for every item that follows, state its recorded normalized growth.
Answers are plain numbers.

Solved cases (5 shown):
compound	normalized growth
OCC(O)C(O)C(O)CO (stereo unspecified)	0.982
CC(C(=O)O)c1cccc(Oc2ccccc2)c1 (stereo unspecified)	0.965
NCC1CCC(C(=O)O)CC1 (stereo unspecified)	0.999
CN1CCC(=C2c3ccccc3Sc3ccccc32)CC1	1.01
COc1ccc2cc([C@H](C)C(=O)O)ccc2c1	0.986

Need normalized growth for each of these compounds.
1. COc1ccc2cc([C@H](C)CO)ccc2c1
2. N=c1ccn2c(n1)O[C@@H]1C2O[C@H](CO)[C@H]1O (stereo partly specified)

Result ::
[0.981, 1.01]

====

- assay_method_text: chemical genetic growth profiling, strain panel (AID 1159580)
- protocol_conditions: S. cerevisiae deletion strains, growth OD, locus YNL153C, strain GIM3
In all, about 5,500 compounds went through this assay and about 2,000 (36%) were called active. Inconclusive results (about 18%) are left out. No stated cut-off is given here; in the data, active means normalized growth mostly below about 0.91 (no sharp cut-off); inconclusive means no clear call, values can overlap the other calls; inactive means mostly above about 0.92. The list shows a part of the results.
Your reply should match one of these outcome classes. active, inactive

# example entries with known answers
molecule	class_name
CCC(C)C(=O)O[C@H]1[C@H](O)C2C(CN3CC(C)CCC3[C@@]2(C)O)C2C[C@]34O[C@]5(O)C(OC(=O)C(C)(O)C(C)O)CC[C@@]3(C)C5C(OC(C)=O)[C@@H](OC(C)=O)C4[C@@]21O (stereo partly specified)	inactive
Clc1cccc(Cl)c1CSC1=NCCCN1C1CCCCC1	inactive
CC(C)(O)[C@@H]1[C@H]2OC(=O)[C@@H]1[C@]1(O)C[C@H]3O[C@]34C(=O)O[C@H]2[C@]14C	inactive

Query :: // outcome(item) with item = COc1ccc2cc([C@H](C)CO)ccc2c1
Result :: inactive

Query :: Write down the call the test reported for this molecule. Item: CC(C)C[C@H](NC(=O)[C@@H](O)[C@H](N)Cc1ccccc1)C(=O)O
Result :: inactive

Query :: Answer briefly: the call reported for CC1=C(OS(=O)(=O)c2cc(C)c(Cl)cc2Cl)C(=O)CC1 in this assay.
Result :: inactive

Query :: Could you check what this test reported for CCN(CCO)CCCC(C)Nc1ccnc2cc(Cl)ccc12 (stereo unspecified) ?
Result :: inactive

Query :: State the result this test recorded for CC1(C)C(C=C(Cl)Cl)C1C(=O)OC(C#N)c1cccc(Oc2ccccc2)c1 (stereo unspecified) .
Result :: inactive

Query :: Which outcome did this test record for the molecule CC(C)C[C@H](NC(=O)[C@H](O)[C@H](N)Cc1ccccc1)C(=O)O ?
Result :: inactive

Query :: // return assay outcome for COc1cc(NC(C)CCCN)c2ncccc2c1 (stereo unspecified)
Result :: inactive

====

- assay_method_text: chemical genetic growth profiling, strain panel (AID 1159580)
- protocol_conditions: S. cerevisiae deletion strains, growth OD, locus YPL055C, strain LGE1
Among all 5,500 compounds or so, about 2,000 (36%) were called active. About 18% were inconclusive and are not listed. Rule as the data show it: active = normalized growth mostly below about 0.91 (no sharp cut-off); inconclusive = no clear call, values can overlap the other calls; inactive = mostly above about 0.92. Some of the results follow.
API: response.call in active, inactive

Query :: For this compound, state the assay outcome: COC1=C(OC)C(=O)C(C/C=C(\C)CC/C=C(\C)CC/C=C(\C)CC/C=C(/C)CC/C=C(\C)CC/C=C(\C)CC/C=C(\C)CC/C=C(\C)CC/C=C(\C)CCC=C(C)C)=C(C)C1=O
Result :: inactive

====

- assay_method_text: chemical genetic growth profiling, strain panel (AID 1159580);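 note: tested at 20 µM; growth read once vehicle control cultures reached saturation at 30 °C; 1 = growth at the plate median or of vehicle wells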
- protocol_conditions: S. cerevisiae deletion strains, growth OD, locus YOL136C, strain PFK27, hits give low values
Hit rate of the full screen: of about 5,500 compounds, about 2,000 (36%) were called active. About 18% were inconclusive and are not listed. The list shows a part of the results.
normalized growth vs 0.9: less than gives true; not less than gives false.

> print(dat)
                                   compound  class.name
1  Cc1ccc(OCC2SCCN2C(=O)c2ccc(C(F)(F)F)cc2)c([N+](=O)[O-])c1 (stereo not given)       false

Query :: I wonder whether O=C(Oc1ccc(C(F)(F)F)cc1[N+](=O)[O-])c1cccc(Cl)c1 has normalized growth below 0.9. Can you tell?
Result :: true

Query :: Would you kindly verify if normalized growth of Cc1ccccc1C(=O)Oc1ccc(C(F)(F)F)cc1[N+](=O)[O-] is strictly less than 0.9?
Result :: true

Query :: Bench note: check whether OC1(C(F)(F)F)CC(C23CC4CC(CC(C4)C2)C3)=NN1 (stereo not given) shows normalized growth below 0.9
Result :: true

====

- assay_method_text: chemical genetic growth profiling, strain panel (AID 1159580);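 note: tested at 20 µM; growth read once vehicle control cultures reached saturation at 30 °C; 1 = growth at the plate median or of vehicle wells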
- protocol_conditions: S. cerevisiae deletion strains, growth OD, locus YOR061W, strain CKA2, hits give low values
Among all 5,500 compounds or so, about 2,000 (36%) were called active. About 18% were inconclusive and are not listed. This is one part of the list.
reported_metric: normalized growth
Answers are plain numbers.

Known results for compounds:
compound	recorded_value
CC[C@H](/C=C/C(C)C1CCC2C3CCC4=CC(=O)CC[C@]4(C)C3CC[C@]12C)C(C)C (some centres undefined)	1.01
COc1cc(O)c(C(=O)/C=C/c2ccccc2)c(OC)c1	0.957
COC1=C(OC)C(=O)C(C/C=C(\C)CC/C=C(\C)CC/C=C(\C)CC/C=C(/C)CC/C=C(\C)CC/C=C(\C)CC/C=C(\C)CC/C=C(\C)CC/C=C(\C)CCC=C(C)C)=C(C)C1=O	0.981
S=c1nc[nH]c2nc[nH]c12	0.993

Parameters: items (list). Returns: normalized growth for each item.
1. CC1=C(C(C)O)C2=NC1C=c1[nH]c(c(C)c1C(C)O)=Cc1[nH]c(c(CCC(=O)O)c1C)C=c1[nH]c(c(C)c1CCC(=O)O)=C2 (centres undefined)
2. CC(=O)C1CCC2C3CC(=O)C4=CC(=O)CCC4(C)C3CCC12C (centres undefined)
3. CCC(=O)O[C@H]1CCC2C3CCC4=CC(=O)CC[C@]4(C)C3CC[C@@]21C (some centres undefined)
4. C[C@]12CCC(=O)C=C1CCC1C2CC[C@@]2(C)C1CC[C@@H]2O (some centres undefined)
5. CNCCc1ccccn1
6. COC1=CC(=O)C[C@@H](C)[C@]12Oc1c(Cl)c(OC)cc(OC)c1C2=O

Result ::
[1.01, 0.942, 0.971, 1.02, 1.01, 0.968]

Could I get normalized growth for every one of these entries?
1. COc1ccc2c(c1)O[C@@H]1COc3cc(OC)c(OC)cc3[C@@H]1C2=O
2. CS(=NC(=O)c1cccc(Cl)c1)c1ccc(OC(=O)c2ccc(Cl)cc2)cc1 (centres undefined)

Result ::
1. 0.967
2. 0.926

====

- assay_method_text: chemical genetic growth profiling, strain panel (AID 1159580);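 note: tested at 20 µM; growth read once vehicle control cultures reached saturation at 30 °C; 1 = growth at the plate median or of vehicle wells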
- protocol_conditions: S. cerevisiae deletion strains, growth OD, locus YDR502C, strain sam2, hits give low values
The campaign covered roughly 5,500 compounds. About 2,000 (36%) were called active. Another 18% or so got no clear call; they are omitted. The list shows a part of the results.
Could you please report measured normalized growth for the items listed next?
Answers are plain numbers.

Answered examples (4):
compound	normalized growth
O=C(O)C1(O)C[C@@H](O)C(O)[C@H](O)C1 (some centres undefined)	1.01
COc1cc2c(cc1OC)C1C(=O)c3ccc4c(c3OC1CO2)CCC(C)(C)O4 (centres undefined)	1.02
CCC(=O)O[C@H]1[C@H](O[C@@H]2[C@@H](C)[C@H](O[C@H]3C[C@@](C)(OC)[C@@H](O)[C@H](C)O3)[C@@H](C)C(=O)O[C@H](CC)[C@@](C)(O)[C@H](O)[C@@H](C)C(=O)[C@H](C)C[C@@]2(C)O)O[C@H](C)C[C@@H]1N(C)C	1.01
COc1cc2c(cc1OC)C1C(=O)c3c(cc4c(c3O)C=CC(C)(C)O4)OC1CO2 (centres undefined)	1.02

Items follow; give normalized growth for each.
1. COc1cc2c(cc1OC)C1C(=O)c3c(OC)cc4c(c3OC1CO2)CCC(C)(C)O4 (centres undefined)
2. CC(Oc1ccccc1)C(=O)N[C@@H]1C(=O)N2[C@@H]1SC(C)(C)[C@@H]2C(=O)O (some centres undefined)
3. COc1cc2c(cc1OC)[C@@H]1C(=O)c3ccc(OC)c(CC=C(C)C)c3O[C@@H]1CO2

Result ::
0.997
1.01
1.01

// each compound listed below needs its normalized growth
1. COc1cc2c(cc1OC)[C@@H]1C(=O)c3ccc4c(c3O[C@@H]1CO2)C=CC(C)(C)O4
2. CN(C)C(=S)SSC(=S)N(C)C

Result ::
1. 0.981
2. 0.0603
